Assay: in vivo
Set-up: species or system Male SD rats
Conditions: rat, plasma, iv, 0.5 hr
Readout Label: concentration at 0.5 h (ng/mL)

>  <Compound>
Cc1c(OCC(F)(F)F)ccnc1C[S+]([O-])c1nc2ccccc2[nH]1 (stereo not shown) [lansoprazole]

>  <Measurement Units>
ng/mL

>  <Readout Value>
3280

$$$$

====

Test: in vivo
Parameters: species or system Male SD rats
Conditions: rat, plasma, iv, 0.17 hr

>  <Molecule>
Cc1c(OCC(F)(F)F)ccnc1C[S+]([O-])c1nc2ccccc2[nH]1 (stereo not shown)

>  <Measurement Units>
ng/mL

>  <concentration at 0.17 h>
5390

$$$$

====

Test: in vivo
Parameters: species or system Male SD rats
Details: rat, plasma, Rectal, Oleaginous base (Witepsol W-35) with sodium oleate, 0.25 hr

>  <Compound>
Cc1c(OCC(F)(F)F)ccnc1C[S+]([O-])c1nc2ccccc2[nH]1 (stereo not shown)

>  <Measurement Units>
ng/mL

>  <concentration at 0.25 h>
210

$$$$

====

Experiment: in vivo
Design: species or system Male SD rats
Details: rat, plasma, iv, 0.25 hr

>  <Molecule>
Cc1c(OCC(F)(F)F)ccnc1C[S+]([O-])c1nc2ccccc2[nH]1 (stereo not shown)

>  <concentration at 0.25 h, ng/mL>
4830

$$$$

====

Test: in vivo
Set-up: species or system Male SD rats
Settings: rat, plasma, Rectal, Oleaginous base (Witepsol W-35) with sodium oleate, 0.08 hr
Readout Label: concentration at 0.08 h (ng/mL)

>  <Molecule>
Cc1c(OCC(F)(F)F)ccnc1C[S+]([O-])c1nc2ccccc2[nH]1 (stereo not shown)

>  <Measurement Units>
ng/mL

>  <Readout Value>
90

$$$$

====

Test: in vivo
Design: species or system Male SD rats
Conditions: rat, plasma, iv, 0.08 hr

>  <Compound>
Cc1c(OCC(F)(F)F)ccnc1C[S+]([O-])c1nc2ccccc2[nH]1 (stereo not shown) [lansoprazole]

>  <Measurement Units>
ng/mL

>  <concentration at 0.08 h>
6960

$$$$

====

Assay: in vivo
Set-up: species or system Male SD rats
Settings: rat, plasma, Rectal, Water-soluble base (PEG-6000) with sodium oleate, 0-8 hr, read-out: AUC0^8 (Area under the plasma concentration time curve)

>  <Compound>
Cc1c(OCC(F)(F)F)ccnc1C[S+]([O-])c1nc2ccccc2[nH]1 (stereo not shown) [lansoprazole]

>  <AUC at 8 h / ng·h/mL>
890

$$$$

====

Test: in vivo
Set-up: species or system Male SD rats
Conditions: rat, plasma, iv, 2.0 hr
Protocol: In the same manner as Experiment Example 1 mentioned above, 960 mg of PEG-6000, 20 mg of lansoprazole and 20 mg of sodium oleate were evenly melted and dispersed. The resulting dispersion was filled in 200 mg portions into metallic rectal suppository containers for rats and cooled to provide composition for rectal administration for rats. […]
Readout Label: concentration at 2 h (ng/mL)

>  <Compound>
Cc1c(OCC(F)(F)F)ccnc1C[S+]([O-])c1nc2ccccc2[nH]1 (stereo not shown) [lansoprazole]

>  <Measurement Units>
ng/mL

>  <Readout Value>
70

$$$$

====

Assay: in vivo
Set-up: species or system Male SD rats
Conditions: rat, plasma, Rectal, Oleaginous base (Witepsol W-35) with sodium oleate, 0.17 hr

>  <Compound>
Cc1c(OCC(F)(F)F)ccnc1C[S+]([O-])c1nc2ccccc2[nH]1 (stereo not shown)

>  <concentration at 0.17 h (ng/mL)>
140

$$$$

====

Experiment: in vivo
Design: species or system Male SD rats
Details: rat, plasma, Rectal, Water-soluble base (PEG-6000) with sodium oleate, 0.5 hr
Experimental: In the same manner as Experiment Example 1 mentioned above, 960 mg of PEG-6000, 20 mg of lansoprazole and 20 mg of sodium oleate were evenly melted and dispersed. The resulting dispersion was filled in 200 mg portions into metallic rectal suppository containers for rats and cooled to provide composition for rectal administration for rats. […]

>  <Molecule>
Cc1c(OCC(F)(F)F)ccnc1C[S+]([O-])c1nc2ccccc2[nH]1 (stereo not shown) [lansoprazole]

>  <concentration at 0.5 h, ng/mL>
420

$$$$

====

Test: in vivo
Set-up: species or system Male SD rats
Conditions: rat, plasma, Rectal, Oleaginous base (Witepsol W-35) with sodium oleate, 4.0 hr
Readout Label: concentration at 4 h

>  <Compound>
Cc1c(OCC(F)(F)F)ccnc1C[S+]([O-])c1nc2ccccc2[nH]1 (stereo not shown)

>  <Readout Value>
90 ng/mL

$$$$

====

Experiment: in vivo
Parameters: species or system Male SD rats
Settings: rat, plasma, iv, 1.0 hr
Readout Label: concentration at 1 h (ng/mL)

>  <Compound>
Cc1c(OCC(F)(F)F)ccnc1C[S+]([O-])c1nc2ccccc2[nH]1 (stereo not shown)

>  <Readout Label>
concentration at 1 h

>  <Readout Value>
910

$$$$

====

Test: in vivo
Parameters: species or system Male SD rats
Settings: rat, plasma, Rectal, Water-soluble base (PEG-6000) with sodium oleate, 1.0 hr

>  <Compound>
Cc1c(OCC(F)(F)F)ccnc1C[S+]([O-])c1nc2ccccc2[nH]1 (stereo not shown)

>  <concentration at 1 h, ng/mL>
330

$$$$

====

Test: in vivo
Parameters: species or system Male SD rats
Conditions: rat, plasma, Rectal, Water-soluble base (PEG-6000) with sodium oleate, 0.17 hr
Readout Label: concentration at 0.17 h

>  <Compound>
Cc1c(OCC(F)(F)F)ccnc1C[S+]([O-])c1nc2ccccc2[nH]1 (stereo not shown)

>  <Readout Label>
concentration at 0.17 h

>  <Readout Value>
240 ng/mL

$$$$

====

Assay: in vivo
Parameters: species or system Male SD rats
Conditions: rat, plasma, iv, 8.0 hr

>  <Compound>
Cc1c(OCC(F)(F)F)ccnc1C[S+]([O-])c1nc2ccccc2[nH]1 (stereo not shown)

>  <Measurement Units>
ng/mL

>  <concentration at 8 h>
2

$$$$

====

Test: in vivo
Set-up: species or system Male SD rats
Settings: rat, plasma, Rectal, Oleaginous base (Witepsol W-35) with sodium oleate, 1.0 hr
Procedure: In the same manner as Experiment Example 1 mentioned above, 960 mg of PEG-6000, 20 mg of lansoprazole and 20 mg of sodium oleate were evenly melted and dispersed. The resulting dispersion was filled in 200 mg portions into metallic rectal suppository containers for rats and cooled to provide composition for rectal administration for rats. […]

>  <Molecule>
Cc1c(OCC(F)(F)F)ccnc1C[S+]([O-])c1nc2ccccc2[nH]1 (stereo not shown) [lansoprazole]

>  <concentration at 1 h>
360 ng/mL

$$$$
